tested-system: GSK3β kinase (Homo sapiens (Human), UniProt P49841)
Sequence (P49841 whole entry): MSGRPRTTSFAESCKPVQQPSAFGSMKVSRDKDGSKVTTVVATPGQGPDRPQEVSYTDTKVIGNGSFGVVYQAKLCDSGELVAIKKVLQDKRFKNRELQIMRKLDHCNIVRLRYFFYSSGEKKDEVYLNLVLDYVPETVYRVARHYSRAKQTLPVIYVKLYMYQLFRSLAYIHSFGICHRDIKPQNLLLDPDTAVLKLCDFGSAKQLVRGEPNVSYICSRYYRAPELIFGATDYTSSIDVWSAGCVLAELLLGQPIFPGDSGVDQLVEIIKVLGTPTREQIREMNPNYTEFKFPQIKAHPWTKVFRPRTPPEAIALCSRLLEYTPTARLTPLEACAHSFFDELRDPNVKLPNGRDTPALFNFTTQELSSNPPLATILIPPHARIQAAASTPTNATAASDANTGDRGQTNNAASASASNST
method-summary: GSK3β kinase assay (Ser/Thr 09 peptide Z-lyte, FRET)
details: method text calls the value IC50
Recorded pEC50 by entry
Remember, pEC50 is on a log scale: it is -log10 of the molar concentration.

Please review the following examples before continuing.
-- ask Quick one: pEC50 for C[C@@H]1CN(C(=O)Nc2cc3cc(-c4cnn(C)c4)ccc3cn2)CCN1C [Compound 67] ?
-- reply 5.73

-- ask Moving on to CC(C)C[N+]1(CC(C)C)CCC(C(=O)Nc2cc3cc(-c4cnn(C)c4)ccc3cn2)CC1 [Compound 170]
-- reply 7.28

-- ask Moving on to [2H]C1([2H])OC([2H])([2H])C([2H])([2H])N(CC(=O)Nc2cc3cc(-c4cnn(C)c4)ccc3cn2)C1([2H])[2H] [Compound 39]
-- reply 7.02

-- ask Moving on to Cc1nnc(-c2ccc3cnc(NC(=O)N4CCN(C)[C@H](C)C4)cc3c2)s1 [Compound 109]
-- reply 6.76

-- ask Moving on to [2H]c1c(NC(=O)C2CCN(C)CC2)ncc2ccc(-c3cnc(C)o3)cc12 [Compound 136]
-- reply 7.10

Now examine the next entry.
-- ask Quick one: pEC50 for [2H]c1c([2H])c(C(=O)Nc2cc3cc(-c4cnc(C)n4C)ccc3cn2)c([2H])c([2H])c1C [Compound 162] ?
-- reply 5.30

----------
Recorded EC50 by entry
tested-system: DYRK1A kinase (Homo sapiens (Human), UniProt Q13627)
method-summary: DYRK1A kinase assay (Ser/Thr 18 peptide Z-lyte, FRET)
details: DYRK1A kinase; method text calls the value IC50
Hi! Could you send only the number? It should be in nM, unit omitted.

-- ask Quick one: EC50 for `Cc1nnc(-c2ccc3cnc(NC(=O)C4CCN(CCC(F)(F)F)CC4)cc3c2)s1` ?
-- reply 6

---
-- ask Quick one: EC50 for `Cc1nnc(-c2ccc3cnc(NC(=O)N4CCC(NCC(F)F)CC4)cc3c2)s1` ?
-- reply 4

-- ask Moving on to `Cc1ncc(-c2ccc3cnc(NC(=O)[C@H]4CC[C@H](N(C)C)CC4)cc3c2)o1`
-- reply 3

-- ask Moving on to `CN1CCN(C(=O)[C@H]2CC[C@H](C(=O)Nc3cc4cc(-c5cnn(C)c5)cc(F)c4cn3)CC2)CC1`
-- reply 5

-- ask Moving on to `Cc1nnc(-c2ccc3cnc(NC(=O)C4(F)CCN(C)CC4)cc3c2)s1`
-- reply 38

-- ask Moving on to `Cn1cc(-c2cc(F)c3cnc(NC(=O)[C@H]4CC[C@@H](N5CCOCC5)CC4)cc3c2)cn1`
-- reply 14

-- ask Moving on to `Cc1nnc(-c2ccc3cnc(NC(=O)N4C[C@H]5C[C@@H]4CN5C)cc3c2)s1`
-- reply 23

----------
System: IL-6
method-summary: IL-6 inhibition in LPS-stimulated human peripheral blood mononuclear cells (HTRF)
Type: cell-based
details: Homo sapiens, PBMC, read-out: percent value in parentheses below EC50 >10
Procedure: Fresh Normal PB MNC (Catalog # PB001, AllCells, Alameda, Calif.) were shipped overnight at 4° C. and resuspended in Roswell Park Memorial Institute (RPMI) 1640 Medium, with GlutaMAX Supplement (Catalog #61870127, ThermoFisher Scientific, Waltham, Mass.) supplemented with 1% Penicillin-Streptomycin (Catalog #151401633 ThermoFisher Scientific, Waltham, Mass.) and 1% fetal bovine serum (FBS) (Catalog #16140089, ThermoFisher Scientific, Waltham, Mass.) assay media. […]
measured-endpoint: inhibition at 10 µM (%)
Hi! Could you send only the number? It should be in %, unit omitted.

Please review the following examples before continuing.
-- ask Quick one: inhibition at 10 µM for `Cn1cnnc1-c1ccc2cnc(NC(=O)CN3CCOCC3)cc2c1` ?
-- reply 12.5

-- ask Moving on to `CC(C)C[N+]1(CC(C)C)CCC(C(=O)Nc2cc3cc(-c4cnn(C)c4)ccc3cn2)CC1`
-- reply 4.4

-- ask Moving on to `Cc1nnc(-c2ccc3cnc(NC(=O)N4C[C@H]5C[C@@H]4CN5C)cc3c2)s1`
-- reply 8.4

Now examine the next entry.
-- ask Quick one: inhibition at 10 µM for `Cc1nnc(-c2ccc3cnc(NC(=O)C4CCN(CC(F)F)CC4)cc3c2)s1` ?
-- reply 2.8

----------
Recorded EC50 by entry
Test system: Tau phosphorylation at Ser396 (pSer396), SH-SY5Y cells
method-summary: Tau phosphorylation at Ser396 (pSer396) in SH-SY5Y cells, ELISA/western blot
Assay type: cell-based, human
details: Homo sapiens; SH-SY5Y cells, overnight (16-18 h); read-out: pSer396 Tau EC50
Hi! Could you send only the number? It should be in nM, unit omitted.

-- ask Quick one: EC50 for `[2H]C([2H])([2H])C(N[C@H]1CCN(C(=O)Nc2cc3cc(-c4nnc(C)s4)ccc3cn2)C[C@@H]1F)C([2H])([2H])[2H]` ?
-- reply 1400

-- ask Moving on to `Cc1nnc(-c2ccc3cnc(NC(=O)N4CC[C@H](N)[C@@H](F)C4)cc3c2)s1`
-- reply 321

-- ask Moving on to `Cc1ncc(-c2cc3cc(NC(=O)[C@H]4CC[C@H](N(C)C)CC4)ncc3cc2F)o1`
-- reply 186

-- ask Moving on to `Cc1nnc(-c2ccc3cnc(NC(=O)N4C[C@H]5C[C@@H]4CN5C)cc3c2)s1`
-- reply 4000

-- ask Moving on to `Cc1nnc(-c2cc(F)c3cnc(NC(=O)N(C)C4CCN(C)CC4)cc3c2)s1`
-- reply 4500

Now examine the next entry.
-- ask Quick one: EC50 for `COCCN[C@H]1CC[C@H](C(=O)Nc2cc3cc(-c4cnc(C)o4)ccc3cn2)CC1` ?
-- reply 323

----------
tested-system: GSK3β kinase (Homo sapiens (Human), UniProt P49841)
method-summary: GSK3β kinase assay (Ser/Thr 09 peptide Z-lyte, FRET);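 note: Coumarin/fluorescein emission ratio converted to percent phosphorylation against unphosphorylated (0%) and phosphorylated (100%) controls, 1 h compound incubation at room temperature, 11-point threefold dilutions from 10 µM, run in duplicate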
details: method text calls the value IC50
measured-endpoint: EC50

Please review the following examples before continuing.
-- ask Quick one: EC50 for `CN[C@H]1CCN(C(=O)Nc2cc3cc(-c4nnc(C)s4)ccc3cn2)C[C@@H]1F` ?
-- reply 26 nM

-- ask Moving on to `Cc1ncc(-c2ccc3cnc(NC(=O)[C@H]4CC[C@H](NCC(F)F)CC4)cc3c2)o1`
-- reply 149 nM

-- ask Moving on to `[2H]c1c([2H])c([2H])c(/C=C/C(=O)Nc2cc3cc(-c4cncn4C)ccc3cn2)c([2H])c1[2H]`
-- reply 238 nM

-- ask Moving on to `CN1CCC(N(C)C(=O)Nc2cc3cc(-c4cnn(C)c4)cc(F)c3cn2)CC1`
-- reply 3640 nM

-- ask Moving on to `Cc1ncc(-c2ccc3cnc(NC(=O)[C@H]4CC[C@H](CN5CCOCC5)CC4)cc3c2)o1`
-- reply 70 nM

-- ask Moving on to Cc1ncc(-c2ccc3cnc(NC(=O)C4CCC(N5CC5CF)CC4)cc3c2)o1 (centres unmarked)
-- reply 124 nM

-- ask Moving on to `Cc1nnc(-c2ccc3cnc(NC(=O)N4CC[C@H](N(C)C)[C@@H](F)C4)cc3c2)s1`
-- reply 46 nM

---
-- ask Quick one: EC50 for `Cc1ncc(-c2ccc3cnc(NC(=O)N(C)C4CCN(C)CC4)cc3c2)o1` ?
-- reply 2820 nM

----------
Tested on: Tau phosphorylation at Ser396 (pSer396), SH-SY5Y cells
method-summary: Tau phosphorylation at Ser396 (pSer396) in SH-SY5Y cells, ELISA/western blot
Format: cell-based, human
details: Homo sapiens; SH-SY5Y cells, overnight (16-18 h); read-out: pSer396 Tau EC50
measured-endpoint: pEC50
Remember, pEC50 is on a log scale: it is -log10 of the molar concentration.

Please review the following examples before continuing.
-- ask Quick one: pEC50 for `Cc1nnc(-c2ccc3cnc(NC(=O)N4CC[C@@H](NC(C)C)[C@H](F)C4)cc3c2)s1` ?
-- reply 5.82

-- ask Moving on to `Cc1nnc(-c2ccc3cnc(NC(=O)N(C)C4CCN(C)CC4)cc3c2)s1`
-- reply 5.47

-- ask Moving on to `Cn1cc(-c2ccc3cnc(NC(=O)N4CCOCC4)cc3c2)cn1`
-- reply 5.54

Now examine the next entry.
-- ask Quick one: pEC50 for `Cc1nnc(-c2ccc3cnc(NC(=O)N4CCC(NCC(F)F)CC4)cc3c2)s1` ?
-- reply 6.24

----------
Test system: Tau phosphorylation at Ser396 (pSer396), SH-SY5Y cells
method-summary: Tau phosphorylation at Ser396 (pSer396) in SH-SY5Y cells, ELISA/western blot;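 note: cell lysates probed for reduced Tau pSer396 via ELISA (colorimetric) or western blot (chemiluminescence), both with one shared pSer396 antibody, EC50 for lowering phosphorylation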
Format: cell-based, human
details: Homo sapiens; SH-SY5Y cells, overnight (16-18 h); read-out: pSer396 Tau EC50
measured-endpoint: log10 of EC50 (log10 of the value in nM)
Values reflect log10 of reported EC50 (nM).

-- ask Quick one: log10 of EC50 for [2H]C1([2H])N(c2cc(C(=O)Nc3cc4cc(-c5cnc(C)n5C)ccc4cn3)ccn2)C([2H])([2H])C([2H])([2H])C([2H])([2H])C1([2H])[2H] [Compound 72] ?
-- reply 3.41

-- ask Moving on to Cc1nnc(-c2ccc3cnc(NC(=O)C4(F)CCNCC4)cc3c2)s1 [Compound 25]
-- reply 2.63

---
-- ask Quick one: log10 of EC50 for [2H]/C(C(=O)Nc1cc2cc(-c3cnc(C)n3C)ccc2cn1)=C(/[2H])c1c([2H])c([2H])c([2H])c([2H])c1[2H] [Compound 91] ?
-- reply 1.83

-- ask Moving on to Cc1ncc(-c2ccc3cnc(NC(=O)[C@H]4CC[C@H](NCC(F)F)CC4)cc3c2)o1 [Compound 104]
-- reply 2.85

-- ask Moving on to Cc1nnc(-c2ccc3cnc(NC(=O)N4CCC(N5CCOCC5)CC4)cc3c2)s1 [Compound 128]
-- reply 2.69

-- ask Moving on to [2H]c1c(NC(=O)C2CCN(C)CC2)ncc2ccc(-c3nnc(C)s3)cc12 [Compound 134]
-- reply 1.97

-- ask Moving on to [2H]c1c([2H])c([2H])c(/C=C/C(=O)Nc2cc3cc(-c4cncn4C)ccc3cn2)c([2H])c1[2H] [Compound 93]
-- reply 2.41

-- ask Moving on to Cc1nnc(-c2ccc3cnc(NC(=O)N4CC[C@@H](N)[C@H](F)C4)cc3c2)s1 [Compound 131]
-- reply 2.53

Source: patent US10604514B2
